- TEST DESCRIPTION: Intrinsic clearance in mouse liver microsomes
- Assay type: ADME
- SETUP CONDITIONS: read-out: CLH
READOUT LABEL: CLint scaled (mL/min/kg)

1) CS(=O)(=O)Cn1cnc2c(N3CCOCC3)nc(-c3cccc4[nH]ccc34)cc21 ... 31

* * *

- ASSAY SYSTEM: Serine/threonine-protein kinase Chk1 (Homo sapiens)
- Sequence (O14757 whole entry): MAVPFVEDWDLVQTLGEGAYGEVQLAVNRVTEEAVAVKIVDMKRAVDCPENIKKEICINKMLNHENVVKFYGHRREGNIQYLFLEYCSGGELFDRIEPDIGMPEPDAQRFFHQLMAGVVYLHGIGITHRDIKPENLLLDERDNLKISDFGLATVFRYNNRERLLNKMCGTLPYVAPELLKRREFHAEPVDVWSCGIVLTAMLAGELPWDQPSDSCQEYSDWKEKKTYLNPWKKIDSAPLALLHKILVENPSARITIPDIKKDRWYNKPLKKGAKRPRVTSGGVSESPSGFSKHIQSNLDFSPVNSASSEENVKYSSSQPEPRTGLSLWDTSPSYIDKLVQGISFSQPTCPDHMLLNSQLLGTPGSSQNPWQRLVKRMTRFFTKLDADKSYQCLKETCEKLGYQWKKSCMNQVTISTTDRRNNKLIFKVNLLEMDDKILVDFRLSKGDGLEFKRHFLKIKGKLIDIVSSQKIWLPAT
- TEST DESCRIPTION: Inhibition of full-length Chk1 in HeLa S3 cells assessed as phosphorylation at Ser345 after 4 hrs
READOUT LABEL: IC50 (nM)

1) C[C@@H]1COCCN1c1nc(-c2cncc3[nH]ccc23)cc2c1ncn2[C@@H](C)S(C)(=O)=O ... 80
2) C[C@@H]1COCCN1c1nc(-c2c(F)ncc3[nH]ccc23)cc2c1ncn2C ... 96
3) C[C@@H]1COCCN1c1nc(-c2cncc3[nH]ccc23)cc2c1ncn2C ... 84

// data source = ChEMBL document CHEMBL3352352
